Sourced from the supplement of paper PMC4862054

- Tested on: CAL-148
- MEASUREMENT NOTES: normalised response (% of control), CellTiter-Glo; higher = more viable cells (100 = DMSO, 0 = benzethonium chloride kill control)
- MEASUREMENT PARAMETERS: incubation time: 72 h
MEASUREMENT TYPE: normalised response (%)
The answer is to be given in %; state only the numeric part.

The cases that follow already have their normalised response on record.
COMPOUND	normalised response (%)
Cn1c(=O)c(F)c(Nc2ccc(I)cc2F)c2c(=O)n(C[C@@H](O)CO)cnc21 [TAK-733] (1000 nM)	98.9
C[C@@H]1C=C2C(=O)O[C@@H]3CC[C@H](C1)[C@]23O [Galiellalactone] (50000 nM)	124
COC(=O)C[C@](O)(CCCC(C)(C)O)C(=O)O[C@@H]1C(OC)=C[C@]23CCCN2CCc2cc4c(cc2[C@H]13)OCO4 [Omacetaxine] (10000 nM)	26.6
C[C@@]1(C(=O)Nc2ccc(F)nc2)CCCN1c1nc(Nc2cc(C3CC3)n[nH]2)c2cccn2n1 (10000 nM)	56.7
COC1=C2C[C@@H](C)C[C@H](OC)[C@H](O)[C@@H](C)/C=C(\C)[C@H](OC(N)=O)[C@@H](OC)/C=C\C=C(/C)C(=O)NC(=CC1=O)C2=O [Geldanamycin] (10000 nM)	33.4
COC1=CC(c2cc3ccccc3[nH]2)=N/C1=C\c1[nH]c(C)cc1C [Obatoclax] (10000 nM)	76.5

Alright, here's another compound for you.
Provide measured normalised response value, entry: CCCC(CCC)C(=O)O [Valproic acid] (1000000 nM)
88.4

###

- Tested on: HCC1937
- MEASUREMENT NOTES: normalised response (% of control), CellTiter-Glo; higher = more viable cells (100 = DMSO, 0 = benzethonium chloride kill control)
- MEASUREMENT PARAMETERS: incubation time: 72 h
Form field: normalised response (one value per entry).
Please respond with the number in % and leave the unit unwritten.

Example entries begin here.
COMPOUND	normalised response [%]
COc1ncc(-c2ccc3nccc(-c4ccnnc4)c3c2)cc1NS(=O)(=O)c1ccc(F)cc1F (1 nM)	95.3
Cn1cnc2c(F)c(Nc3ccc(Br)cc3F)c(C(=O)NOCCO)cc21 [MEK-162] (1 nM)	96.3
Cc1cc(C(C)Nc2ccccc2)c2nc(N3CCOCC3)cc(=O)n2c1 (configuration not stated) [TGX-221] (10 nM)	98.8
CCOc1cc2ncc(C#N)c(Nc3ccc(OCc4ccccn4)c(Cl)c3)c2cc1NC(=O)/C=C/CN(C)C [Neratinib] (100 nM)	88
COC1=C2C[C@@H](C)C[C@H](OC)[C@H](O)[C@@H](C)/C=C(\C)[C@H](OC(N)=O)[C@@H](OC)/C=C\C=C(/C)C(=O)NC(=CC1=O)C2=O [Geldanamycin] (10 nM)	99.9
COC1=CC(c2cc3ccccc3[nH]2)=N/C1=C\c1[nH]c(C)cc1C [Obatoclax] (1000 nM)	63.4

Below: the item to evaluate.
Read off the recorded normalised response for C[C@@H]1CCN(C(=O)CC#N)C[C@@H]1N(C)c1ncnc2[nH]ccc12 [Tofacitinib] (5 nM)
96.3

###

- Tested on: HCC1143
- MEASUREMENT PARAMETERS: 72 h
Item-by-item account of EC50, CellTiter-Blue viability
// note: answer is a bare numeric in nM

// known answers, use as guide
STRUCTURE SMILES STRING	EC50, CellTiter-Blue viability, nM
O=c1[nH]c(=O)n([C@H]2C[C@H](O)[C@@H](CO)O2)cc1F	1630
CC(C)C[C@H](NC(=O)[C@H](Cc1ccccc1)NC(=O)c1cnccn1)B(O)O	6.46
Cn1c(=O)c(F)c(Nc2ccc(I)cc2F)c2c(=O)n(C[C@@H](O)CO)cnc21	14.2
COc1ncc(-c2ccc3nccc(-c4ccnnc4)c3c2)cc1NS(=O)(=O)c1ccc(F)cc1F	19.8
C#Cc1cccc(Nc2ncnc3cc(OC)c(OCCCCCCC(=O)NO)cc23)c1	361
COC1=CC(c2cc3ccccc3[nH]2)=N/C1=C\c1[nH]c(C)cc1C	171

Shift focus to the following entry.
Provide EC50, CellTiter-Blue viability value for the following compound: `Cn1cnc2c(F)c(Nc3ccc(Br)cc3F)c(C(=O)NOCCO)cc21`
9.21
